# assaySummary: yeast display, Sf9 membrane polyspecificity reagent, FACS + sequencing; frameworks hold sequencing errors
reportedMetric: polyreactivity (PSR sort gate)

1) QVQHVESVGRLVQAGGSLRLSCAASGFTFKYYAMGWYRQAPGKERELVAVISSSGGSTYYADSVKGRFTISRDNAKNTVYLQMNSLKPEDTAVYYCAAELVYRYFVKDADDYWGQGTQVTVSS : low polyreactivity
2) QVQLVESGGGLVQAGGSLRLSCAASGSTFDDNGMGWYRKAPGKERELVAGINSAGSTYYADSVKGRFTISRDNAKNTVYLQMNSLKPEDTAVYYCARRFLLKDRTKRAYGSWGQGTQVTVSS : low polyreactivity
3) QVQLLETGGGLVQAGGSLRLSFAASGSIFYRYSMVWYRQAPGKERELVAAISYSGGSTYYADSVKGRFTISRDNAKNTVYLQMNSLKPEDTAVYYCAKDYPPPISDYSRYYGYGYWGQGTQVTVSS : low polyreactivity
